biological target: human κ (CHO-KOR) opioid receptor (Homo sapiens, UniProt P41145)
Sequence (P41145 whole entry): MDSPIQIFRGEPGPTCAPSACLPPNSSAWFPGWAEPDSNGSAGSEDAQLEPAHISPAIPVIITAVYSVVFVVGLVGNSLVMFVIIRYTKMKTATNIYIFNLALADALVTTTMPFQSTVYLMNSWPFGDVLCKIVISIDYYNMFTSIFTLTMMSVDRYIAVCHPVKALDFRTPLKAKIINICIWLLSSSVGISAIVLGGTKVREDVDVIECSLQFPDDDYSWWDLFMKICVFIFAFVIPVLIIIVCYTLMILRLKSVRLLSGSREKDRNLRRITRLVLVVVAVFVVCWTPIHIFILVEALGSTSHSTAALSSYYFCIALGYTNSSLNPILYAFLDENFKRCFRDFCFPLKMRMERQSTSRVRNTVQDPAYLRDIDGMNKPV
Categories are assigned from the measured Ki using these intervals: low value = under 20 nM, medium value = from 20 nM up to 60 nM, high value = 60 nM and over

>  <Molecule>
COc1cc2c(cc1Cc1ccccc1)[C@H](NC(=O)[C@@H](N)Cc1c(C)cc(O)cc1C)CCN2 [Compound 1045]

>  <Qualitative label>
low value

$$$$
>  <Molecule>
CC(=O)N1CC[C@H](NC(=O)[C@@H](N)Cc2c(C)cc(O)cc2C)c2cc(Oc3ccccc3)ccc21 [Compound 1020]

>  <Qualitative label>
high value

$$$$
>  <Molecule>
COc1cc(Cl)c(C[C@H](N)C(=O)N[C@@H]2CCNc3ccc(Cc4ccccc4)cc32)c(Cl)c1 [Compound 1021]

>  <Qualitative label>
high value

$$$$
>  <Molecule>
Cc1cc(O)cc(C)c1C[C@H](N)C(=O)N[C@@H]1CCNc2c(Cc3ccccc3)cc(Cc3ccccc3)cc21 [Compound 1041]

>  <Qualitative label>
low value

$$$$
>  <Molecule>
Cc1cc(O)cc(C)c1C[C@H](N)C(=O)N[C@@H]1CCNc2ccc(Oc3ccc(Cl)cc3)cc21 [Compound 1025]

>  <Qualitative label>
medium value

$$$$
>  <Molecule>
Cc1cc(O)cc(C)c1C[C@H](N)C(=O)N[C@@H]1CCNc2c(-c3ccoc3)cc(Cc3ccccc3)cc21 [Compound 1094]

>  <Qualitative label>
medium value

$$$$
>  <Molecule>
Cc1cc(O)cc(C)c1C[C@H](N)C(=O)N[C@@H]1CCNc2c(-c3cc4ccccc4o3)cc(Cc3ccccc3)cc21 [Compound 1095]

>  <Qualitative label>
high value

$$$$
>  <Molecule>
Cc1cc(O)cc(C)c1C[C@H](N)C(=O)N[C@H]1c2cc(Cc3ccccc3)ccc2NC[C@H]1C [Compound 1078]

>  <Qualitative label>
low value

$$$$
>  <Molecule>
Cc1cc(O)cc(C)c1C[C@H](N)C(=O)N[C@@H]1CCNc2c(C(=O)NCc3ccccc3)cc(Cc3ccccc3)cc21 [Compound 1104]

>  <Qualitative label>
medium value

$$$$
>  <Molecule>
Cc1cc(O)cc(C)c1C[C@H](N)C(=O)N[C@@H]1CCN(C)c2ccc(Cc3ccccc3)cc21 [Compound 1004]

>  <Qualitative label>
medium value

$$$$
>  <Molecule>
Cc1cc(O)cc(C)c1C[C@H](N)C(=O)N[C@@H]1CCNc2c(CN3CCCCC3)cc(Cc3ccccc3)cc21 [Compound 1097]

>  <Qualitative label>
low value

$$$$
>  <Molecule>
Cc1cc(O)cc(C)c1C[C@H](N)C(=O)N[C@@H]1CCCc2ccc(-c3ccc4ccccc4c3)cc21 [Compound 1116]

>  <Qualitative label>
high value

$$$$
>  <Molecule>
Cc1cc(O)cc(C)c1C[C@H](N)C(=O)N[C@@H]1CCNc2ccc(Cc3ccc(F)cc3)cc21 [Compound 1009]

>  <Qualitative label>
low value

$$$$
